Test: Pharmacokinetics in mice after single intragastric or intravenous administration
Type: in vivo
Settings: female, BALB/c nude, mouse, plasma, single intravenous administration, 3 mg/kg
Experimental: Healthy adult female BALB/c nude mice were evenly divided into groups of 3 mice per group. 3 mice were administered intragastrically, and 3 mice were administered intravenously. The mice were purchased from Beijing Vital River Laboratory Animal Technology Co., Ltd., animal production license number: SCXK (Zhejiang) 2019-0001. […]
quantity measured: AUC(0-t) (ng·h/mL)
API: value field is a number in ng·h/mL; no unit string.

Exercise: Entry "COc1c(=O)n(C2(CF)CC2)cc2c(N[C@H](C)c3cccc(C(F)F)c3F)nc(C)nc12" has what AUC(0-t)?
Solution: 619

Values from patent EP4417607A1
